Where do these numbers come from? They come from PubChem BioAssay AID367.

Known IC50 of a selection of compounds
# assayed.target: Gag-Pol polyprotein (Human immunodeficiency virus type 2 subtype A (isolate ROD))
# method.notes: Ribonuclease H inhibitors of HIV-2 reverse transcriptase, biochemical dose response (AID 367)
# run.parameters: HIV-2 RNase H, FRET RNA/DNA substrate cleavage

Examples with answers:
structure.smiles	IC50
Oc1c(Br)cc(/C=N/Nc2nnc3c(n2)[nH]c2ccccc23)c(Br)c1O	2300 nM
COc1ccc(N2C(=O)/C(=C/c3ccc(I)o3)C(=O)NC2=S)cc1	1300 nM
CC(C)=CCC/C(C)=C/Cc1cc(/C=C/c2cc(O)c(C/C=C(\C)CCC=C(C)C)c(O)c2)cc(O)c1O	8200 nM
Oc1cc(O)c2cc(O)c(-c3ccc(O)c(O)c3)[o+]c2c1	800 nM

Next, consider the following compound.
Reported IC50, compound COc1cccc2cc(C(N)=O)c(=O)oc12 : ____
4600 nM
